All figures here come from PubChem BioAssay (NCI).

The molecules listed here are annotated with their TGI.
- System: LOX IMVI melanoma
- METHOD: NCI tumour cell line growth inhibition, 48 h

Sample answers from the record:
>>> measured_result("CC(=O)O[C@H]1C(=O)[C@@]2(C)[C@H]([C@H](OC(=O)c3ccccc3)[C@]3(O)C[C@H](OC(=O)[C@H](O)[C@@H](NC(=O)C(C)(C)C)c4ccccc4)C(C)=C1C3(C)C)[C@]1(OC(C)=O)CO[C@@H]1C[C@@H]2O")
"> 10 µM"
>>> measured_result("C=CCSSCC=C")
"> 38.6 µM"
>>> measured_result("CCOP(=O)(OCC)[C@H]1OC(C)(C)O[C@@H]1CO")
"> 100 µM"

Ask: Tell me the measured TGI of O=C(/C(=C/c1ccc([N+](=O)[O-])cc1)SCc1ccc(F)cc1)c1ccc(Cl)cc1 , please.
Reply: 3.27 µM

Ask: Fill blank: measured TGI of the molecule O=C1C(=Cc2cccc(O)c2)N=C(c2ccccc2)N1n1c(-c2ccccc2)nc2ccccc2c1=O is ____.
Reply: 52.5 µM

Ask: Recorded TGI of O=C(NC1C2CC3CC(C2)CC1C3)c1cc(/C=C/c2ccccc2)[nH]c(=S)n1 (stereo not given) , please.
Reply: > 100 µM

---

- Test system: OVCAR-8 ovarian
- METHOD: NCI tumour cell line growth inhibition, 48 h; in the data active means GI50 below about 0.43 µM; inactive means the rest
Thanks in advance; please answer with one of these: yes for active, no for inactive

Ask: Can you look up the reported call for O=c1c2c3c(sc2nc(N/N=C/c2ccc(Br)cc2)n1Cc1ccccc1)CCCC3 for me?
Reply: no

Ask: Called result for COc1ccc(-c2c(-c3cc(OC)c(OC)c(OC)c3)noc2N)cc1
Reply: yes

Ask: Assay outcome for C=C(CN1CCN(c2cccc(C(F)(F)F)n2)CC1)c1ccc(C(=S)Nc2ccccc2N)cc1 : what was it?
Reply: no

---

Each record here notes measured TGI.
- Tested on: A549 NSCLC
- METHOD: NCI tumour cell line growth inhibition, 48 h

Consider the worked cases shown below.
>>> measured_result("CC[C@@H]1C[C@H]2CC3c4[nH]c5ccc(O)cc5c4CCN(C2)C31")
"> 100 µM"
>>> measured_result("COc1cc(Nc2nc3ccc(C(F)(F)F)cc3nc2C(=O)O)cc(OC)c1OC")
"> 100 µM"
>>> measured_result("COc1cc(N(Cc2ccc3nc(OC)c(OC)nc3c2)Cc2ccc3nc(OC)c(OC)nc3c2)cc(OC)c1OC")
"> 50 µM"

Ask: Could you tell me which TGI is on file for Nc1nc(Nc2ccccc2)sc1C(=O)c1cccs1 ?
Reply: 41.7 µM

Ask: So what's the measured TGI for this one? COc1ccc(-n2c(N)c(C#N)c(C#N)c2-c2ccccc2)cc1
Reply: > 100 µM

Ask: Please give the measured TGI for this compound: COc1c(OC/C=C(\C)CCC=C(C)C)ccc2ccc(=O)oc12
Reply: > 100 µM

Ask: Look at this compound and give its reported TGI. CCCCCCCC(=O)OCC1OC(OC)C(NC(=O)N(CCCl)N=O)C(O)C1O (stereo unspecified)
Reply: > 72.3 µM

Ask: Please give the measured TGI for this compound: O=C(NC1C2CC3CC(C2)CC1C3)c1cc(/C=C/c2ccccc2)[nH]c(=S)n1 (stereo unspecified)
Reply: > 100 µM

Ask: Given S=c1nc(Cl)cc2[nH]c(Cl)cn12 , state its recorded TGI.
Reply: > 100 µM

Ask: // TGI lookup, key: c1ccc(C(=NNc2cnc3ccccc3n2)c2ccccn2)cc1
Reply: 15 µM

---

- Test system: MALME-3M melanoma
- METHOD: NCI tumour cell line growth inhibition, 48 h; in the data active = GI50 below about 0.43 µM; inactive = the rest
A correct response names exactly one class from 1 = active, -1 = inactive

Reference set, count: 6
>>> cat("Cc1ncsc1-c1ccc(CNC(=O)[C@@H]2C[C@@H](O)CN2C(=O)[C@@H](NC(=O)C2(C#N)CC2)C(C)(C)C)cc1")
-1
>>> cat("N#CS.N=C=S.N=C=S.[Cu+2].[NH2-].[NH2-].[NH2-].[NH2-].c1ccc2ncccc2c1")
-1
>>> cat("CC/C(=C(/c1ccc(O)cc1)c1ccc(OCCN2CCCCC2)cc1)c1ccc(OC)cc1")
-1
>>> cat("COc1cccc2c1c(C1=C(c3cn(C)c4ccccc34)C(=O)NC1=O)cn2C")
-1
>>> cat("N#CC1=C(N)NC(=S)NC12Nc1ccccc1N2")
-1
>>> cat("c1ccc(CN=C(NCc2ccccc2)NCc2ccccc2)cc1")
-1

Ask: Test call, this compound: OCC1OC(n2cnc3c(Cl)nc(Cl)cc32)C(O)C1O (stereo not given)
Reply: -1

---

- System: UO-31 renal
- METHOD: NCI tumour cell line growth inhibition, 48 h; in the data active = GI50 below about 0.43 µM; inactive = the rest
// classify into active, inactive

Field: example entries. Status: answers known.
>>> cat("Cc1cc2c(c3oc(C4(C)OC4C4OC4C)cc(=O)c13)C(=O)c1c(O)c(C3CC(C)(N(C)C)C(O)C(C)O3)cc(C3CC(N(C)C)C(O)C(C)O3)c1C2=O (centres undefined)")
"active"
>>> cat("O=C(Nc1nc2ccc(F)cc2s1)c1cccnc1Nc1ccc(Cl)cc1")
"inactive"
>>> cat("CC/C(=C(/c1ccc(O)cc1)c1ccc(OCCN2CCCCC2)cc1)c1ccc(OC)cc1")
"inactive"
>>> cat("COc1cccc2c1c(C1=C(c3cn(C)c4ccccc34)C(=O)NC1=O)cn2C")
"inactive"
>>> cat("Cc1ccc(-c2nc(N3CCCNCC3)c3oc(-c4ccccc4)nc3n2)cc1")
"inactive"

Ask: Call for entry CNC(=O)Oc1cc(C)c(/C=C/c2cncc(C(=O)NC)c2)c(C)c1 :
Reply: inactive

Ask: Any idea what this test logged for CC1=C([Te]c2ccc(O)cc2)C(=O)c2ccccc2C1=O ?
Reply: inactive

Ask: Check the results log: what was the call for CCc1ccc2c(c1)N(CCO)C1=C(C(=O)OC1)C2c1cccc(Cl)c1 (centres undefined) ?
Reply: inactive

Ask: Hello, I am checking results. What call was entered for N#CS.N=C=S.N=C=S.[Cu+2].[NH2-].[NH2-].[NH2-].[NH2-].c1ccc2ncccc2c1 ?
Reply: inactive

---

- Test system: ACHN renal
- METHOD: NCI tumour cell line growth inhibition, 48 h
MEASURED PROPERTY: TGI

>>> measured_result("CNc1nnc(CNc2ccc(-c3nnc(NC)n3N)cc2)n1N")
"> 100 µM"
>>> measured_result("CC(C)(C)c1ccc(/C=N/NC(=O)CSCC(=O)N/N=C/c2ccc(C(C)(C)C)cc2)cc1")
"13.5 µM"
>>> measured_result("COc1cc(/C=C/C(=O)CC(=O)/C=C/c2ccc(O)c(OC)c2)ccc1O")
"28.9 µM"
>>> measured_result("COc1ccc2c(ccc3c(COC(=O)NC(C)C)c(COC(=O)NC(C)C)n(C)c32)c1")
"7.13 µM"

Consider the record given below.
Ask: Entry CC(O)C1(CNc2cc(Cl)nc(N)n2)CC(CCc2ccccc2)C1 (stereo not given) has what TGI?
Reply: 22.2 µM

---

- System: SK-MEL-2 melanoma
- METHOD: NCI tumour cell line growth inhibition, 48 h
MEASURED PROPERTY: TGI

Solved entries (count: 2):
>>> measured_result("Clc1cc2n[se]nc2cc1Cl")
"> 100 µM"
>>> measured_result("O=C(NCc1ccncc1)C12CC3CC(C1)CC(c1ccc(Cl)cc1)(C3)C2")
"28.1 µM"

Ask: Give its TGI value. Item: CC(=O)C1(N=Nc2ccc(S(N)(=O)=O)cc2)CCOC1=O (stereo unspecified)
Reply: > 100 µM

Ask: Name the reported TGI value associated with the molecule S=c1nc(Cl)cc2[nH]c(Cl)cn12
Reply: > 100 µM

---

- System: SF-539 CNS
- METHOD: NCI tumour cell line growth inhibition, 48 h
Entries and their measured GI50 follow.

Look over these answered cases.
>>> measured_result("O=C(NCc1ccco1)c1ccc(NC2=C(Cl)C(=O)N(Cc3ccccc3)C2=O)cc1")
"22.2 µM"
>>> measured_result("O=C(NCc1ccncc1)C12CC3CC(C1)CC(c1ccc(Cl)cc1)(C3)C2")
"14.1 µM"

Ask: Report GI50 for O=C(NN=C1CCCCC1)c1[nH]c2ccc(F)cc2c1-c1ccccc1 please.
Reply: 52 µM

---

- Test system: 786-0 renal
- METHOD: NCI tumour cell line growth inhibition, 48 h
MEASURED PROPERTY: GI50

>>> measured_result("C[C@H](CCCNCCCNCCCN)[C@H]1CC[C@H]2[C@@H]3[C@H](OCCCN)C[C@H]4C[C@H](OCCCN)CC[C@]4(C)[C@H]3C[C@H](OCCCN)[C@]12C")
"0.824 µM"

Ask: What value of GI50 has been reported for the following compound? Cc1ccc(-c2nc(N3CCCNCC3)c3oc(-c4ccccc4)nc3n2)cc1
Reply: 1.43 µM

Ask: Consider the compound shown here: CCS(=O)(=O)Nc1cccc(Nc2c3cccc(C)c3nc3c(C)cccc23)c1OC What is its recorded GI50?
Reply: 0.485 µM

Ask: Which GI50 is reported for this compound? Cc1cc2c(c3oc(C4(C)OC4C4OC4C)cc(=O)c13)C(=O)c1c(O)c(C3CC(C)(N(C)C)C(O)C(C)O3)cc(C3CC(N(C)C)C(O)C(C)O3)c1C2=O (stereo not given)
Reply: 0.000463 µM

Ask: GI50 for OCC1OC(n2cnc3c(Cl)nc(Cl)cc32)C(O)C1O (stereo not given) ?
Reply: > 100 µM

Ask: Field request: GI50 | item: O=C(CCC(C(=O)c1ccccc1)c1ccccc1)c1ccccc1 (stereo not given)
Reply: 49.4 µM

Ask: Find the recorded GI50 belonging to CN(C)CCOC(c1ccccc1)c1ccccc1 and report it.
Reply: 35.1 µM

Ask: Report GI50 for Cc1ncsc1-c1ccc(CNC(=O)[C@@H]2C[C@@H](O)CN2C(=O)[C@@H](NC(=O)C2(C#N)CC2)C(C)(C)C)cc1 please.
Reply: > 100 µM

Ask: Recorded GI50 for O=C(/C(=C/c1ccc([N+](=O)[O-])cc1)SCc1ccc(F)cc1)c1ccc(Cl)cc1 , please?
Reply: 10.9 µM

Ask: Quick one: GI50 for C=C(CN1CCN(c2cccc(C(F)(F)F)n2)CC1)c1ccc(C(=S)Nc2ccccc2N)cc1 ?
Reply: 4.29 µM
